Tested on: HT29 cells (colorectal adenocarcinoma)
assayProtocol: cells
statedConditions: read-out: LC50; HT29; 50% net cell killing; 72 hours; SRB
metric: CC50

Query for HT29 cells (colorectal adenocarcinoma): what CC50 does the record show for `COc1c(C)cc2c(c1O)[C@@H]1[C@@H]3[C@@H]4SC[C@]5(N[C@@H](CO)Cc6c5[nH]c5ccccc65)C(=O)OC[C@@H](c5c6c(c(C)c(OC(C)=O)c54)OCO6)N3[C@@H](C#N)[C@H](C2)N1C` ?
> 126 nM

Please tell me: CC50 of COc1ccc2[nH]c3c(c2c1)C[C@@H](C(=O)O)N[C@]31CS[C@@H]2c3c(OC(C)=O)c(C)c4c(c3[C@H](COC1=O)N1[C@@H]2[C@H]2c3c(cc(C)c(OC)c3O)C[C@@H]([C@@H]1C#N)N2C)OCO4 [Compound 28-S, reference compound] , system HT29 cells (colorectal adenocarcinoma)?
633 nM

What measured CC50 is associated with `COc1c(C)cc2c(c1O)[C@@H]1[C@@H]3[C@@H]4SC[C@]5(N[C@@H](C)Cc6c5[nH]c5ccccc65)C(=O)OC[C@@H](c5c6c(c(C)c(OC(C)=O)c54)OCO6)N3[C@@H](O)[C@H](C2)N1C` on HT29 cells (colorectal adenocarcinoma)?
> 130 nM

Fill in the recorded CC50 for this molecule, with HT29 cells (colorectal adenocarcinoma) as test system: `COc1c(C)cc2c(c1O)[C@@H]1[C@@H]3[C@@H]4SC[C@]5(N[C@H](CN)Cc6c5[nH]c5ccccc65)C(=O)OC[C@@H](c5c6c(c(C)c(OC(C)=O)c54)OCO6)N3[C@@H](C#N)[C@H](C2)N1C`
> 126 nM

Any idea what CC50 came out for `COc1c(C)cc2c(c1O)[C@@H]1[C@@H]3[C@@H]4SC[C@]5(N[C@@H](CN)Cc6c5[nH]c5ccccc65)C(=O)OC[C@@H](c5c6c(c(C)c(OC(C)=O)c54)OCO6)N3[C@@H](C#N)[C@H](C2)N1C` on HT29 cells (colorectal adenocarcinoma)?
> 126 nM

Please tell me: CC50 of `COc1c(C)cc2c(c1O)[C@@H]1[C@@H]3[C@@H]4SC[C@]5(N[C@@H](CO)Cc6c5oc5ccccc65)C(=O)OC[C@@H](c5c6c(c(C)c(OC(C)=O)c54)OCO6)N3[C@@H](C#N)[C@H](C2)N1C` , system HT29 cells (colorectal adenocarcinoma)?
> 126 nM

Return CC50 measured with HT29 cells (colorectal adenocarcinoma) given this molecule: `C=CCOC(=O)NC[C@H]1Cc2c([nH]c3ccc(OC)cc23)[C@@]2(CS[C@@H]3c4c(OC(C)=O)c(C)c5c(c4[C@H](COC2=O)N2[C@@H]3[C@H]3c4c(cc(C)c(OC)c4O)C[C@@H]([C@@H]2C#N)N3C)OCO5)N1`
> 110 nM

Fill in the recorded CC50 for this molecule, with HT29 cells (colorectal adenocarcinoma) as test system: `COc1ccc2oc3c(c2c1)CCN[C@]31CS[C@@H]2c3c(OC(C)=O)c(C)c4c(c3[C@H](COC1=O)N1[C@@H]2[C@H]2c3c(cc(C)c(OC)c3O)C[C@@H]([C@@H]1C#N)N2C)OCO4`
125 nM

Data credit: patent US12384800B2
